The values you see were collected from patent US20250382355A1.

Target: SARS-CoV-2 prefusion-stabilized spike protein (SARS-CoV-2-PreS) (SARS-CoV-2, UniProt P0DTC2 14-1208)
Experiment: Biacore, apparent affinity
Recorded Endpoint: Kd

Below: 5 binders and their reported Kd.
10B8 VHH (VHH) VHH: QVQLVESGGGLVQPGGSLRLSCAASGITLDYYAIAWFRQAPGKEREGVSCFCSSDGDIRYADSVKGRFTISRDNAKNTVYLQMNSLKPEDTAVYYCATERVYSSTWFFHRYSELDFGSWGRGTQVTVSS	< 0.2 nM
11F8 VHH-Fc (Fc fusion) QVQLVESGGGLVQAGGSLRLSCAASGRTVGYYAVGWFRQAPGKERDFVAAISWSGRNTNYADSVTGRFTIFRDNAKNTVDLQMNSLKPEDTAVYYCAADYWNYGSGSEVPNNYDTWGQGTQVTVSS	< 0.2 nM
15H7 VHH-Fc (Fc fusion) QVQLVESGGRLVQAGGSLRLSCAAPGRTFRNLTLGWFRQAPGKEREFVASTSWPDDEMTYYTDSVKGRFTISRDNAKNTVYLQMNSLKPEDTAVYYCAAASWSGRSTLSYDYDYWGQGTQVTVST	< 0.2 nM
7A9 VHH-Fc (Fc fusion) QVQLVESGGGLVQAGGSLRLSCSASGGTASRSAMGWFRQAPGKEREFVAGISRRNSGSTYVADSYEDSVKGRFTISRDNAKNTIYLQMNSLKPEDTAVYYCAAEPTLGWYVPRRSVEYEYWGQGTQVTVSS	< 0.2 nM
3D4 VHH (VHH) VHH: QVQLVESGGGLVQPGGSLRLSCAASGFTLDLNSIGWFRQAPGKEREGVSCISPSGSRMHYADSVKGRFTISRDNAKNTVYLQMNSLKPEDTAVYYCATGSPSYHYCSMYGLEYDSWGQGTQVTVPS	< 0.2 nM

Continue with the binder presented below.
Q: For 20D11 VHH-Fc (Fc fusion) QVQLVESGGGLVQAGGSLRLSCAASGRTSSIYSVGWFRQAPGKERELVAGITWSGGTTYYSDSVKGRFTISRDNAKNTVNLQMNNLKPEDTAIYYCAVDRYSMTMSARDYDYWGQGTQVTVSS , what is its reported Kd?
Result: < 0.2 nM
